Where these numbers come from: patent US12466813B2

tgt: RING1B-BMI1 (Homo sapiens, UniProt Q99496)
run_description: KD classes of Table A (direct binding to Ring1B-Bmi1)
study_conditions: class given in Table A
pKd: −log10 of the molar value.

compound: COc1ccc(-c2c(C(=O)O)[nH]c(-c3cccc4[nH]ccc34)c2C(C)C)c(Cl)c1 [compound 19]
tgt: RING1B-BMI1 (Homo sapiens, UniProt Q99496)
pKd: > 4.70
//
compound: CC(C)c1c(-c2cc(F)cc3cc[nH]c23)[nH]c(C(=O)O)c1-c1c(Cl)ccc2[nH]ccc12 [compound 185]
tgt: RING1B-BMI1 (Homo sapiens, UniProt Q99496)
pKd: > 4.70
//
compound: CC(C)c1c(-c2cc(F)cc3[nH]ccc23)[nH]c(C(=O)O)c1-c1ccnc2[nH]ccc12 [compound 74]
tgt: RING1B-BMI1 (Homo sapiens, UniProt Q99496)
pKd: > 4.70
//
compound: COc1cc(OC)cc(-c2ccc(C(=O)O)[nH]2)c1 [compound 133]
tgt: RING1B-BMI1 (Homo sapiens, UniProt Q99496)
pKd: < 4.00
//
compound: CC(C)c1c(-c2cc(F)cc3[nH]ccc23)[nH]c(C(=O)O)c1-c1c[nH]c2ccccc12 [compound 203]
tgt: RING1B-BMI1 (Homo sapiens, UniProt Q99496)
pKd: > 4.70
//
compound: NC(=O)c1ccc(-c2cccc3[nH]ccc23)[nH]1 [compound 145]
tgt: RING1B-BMI1 (Homo sapiens, UniProt Q99496)
pKd: < 4.00
//
compound: O=C(O)c1ccc(-c2cccc3ncccc23)[nH]1 [compound 160]
tgt: RING1B-BMI1 (Homo sapiens, UniProt Q99496)
pKd: < 4.00
//
compound: CC(C)c1c(-c2cc(F)cc3[nH]ccc23)[nH]c(C(=O)O)c1-c1c(Cl)ccc2[nH]c(C(=O)O)cc12 [compound 53]
tgt: RING1B-BMI1 (Homo sapiens, UniProt Q99496)
pKd: > 4.70
//
compound: CC(C)c1c(-c2cc(F)cc3[nH]ccc23)[nH]c(C(=O)O)c1-c1cccc2c1ccn2CCO [compound 44]
tgt: RING1B-BMI1 (Homo sapiens, UniProt Q99496)
pKd: > 4.70
//
compound: COc1ccccc1-c1ccc(C(=O)O)[nH]1 [compound 142]
tgt: RING1B-BMI1 (Homo sapiens, UniProt Q99496)
pKd: < 4.00
//
compound: COc1cccc(-c2ccc(C(=O)O)[nH]2)c1 [compound 141]
tgt: RING1B-BMI1 (Homo sapiens, UniProt Q99496)
pKd: < 4.00
//
compound: CCc1c(-c2cccc3[nH]ccc23)[nH]c(C(=O)O)c1-c1cccc(OC)c1 [compound 85]
tgt: RING1B-BMI1 (Homo sapiens, UniProt Q99496)
pKd: 4.30 to 4.70
//
compound: CC(C)c1c(-c2cc(F)cc3[nH]ccc23)[nH]c(C(=O)O)c1-c1cccc2[nH]c(S(C)(=O)=O)cc12 [compound 228]
tgt: RING1B-BMI1 (Homo sapiens, UniProt Q99496)
pKd: > 4.70
//
compound: CCOc1cc(-c2c(C(=O)O)[nH]c(-c3cc(F)cc4[nH]ccc34)c2C(C)C)c2cc[nH]c2c1 [compound 42]
tgt: RING1B-BMI1 (Homo sapiens, UniProt Q99496)
pKd: > 4.70
//
compound: CCOC(=O)c1[nH]c(-c2c(OC)cccc2OC)c(CC)c1-c1ccc(OC)cc1Cl [compound 164]
tgt: RING1B-BMI1 (Homo sapiens, UniProt Q99496)
pKd: < 4.00
//
compound: Cc1cc(-c2cccc3c2ccn3C)[nH]c1C(=O)O [compound 117]
tgt: RING1B-BMI1 (Homo sapiens, UniProt Q99496)
pKd: < 4.00
//
compound: COc1cc(-c2c(C(=O)O)[nH]c(-c3cc(F)cc4[nH]ccc34)c2C(C)C)c2cc(CO)[nH]c2c1 [compound 192]
tgt: RING1B-BMI1 (Homo sapiens, UniProt Q99496)
pKd: > 4.70

* * *

tgt: RING1B-BMI1 (Homo sapiens)
Sequence (Q99496 1-336): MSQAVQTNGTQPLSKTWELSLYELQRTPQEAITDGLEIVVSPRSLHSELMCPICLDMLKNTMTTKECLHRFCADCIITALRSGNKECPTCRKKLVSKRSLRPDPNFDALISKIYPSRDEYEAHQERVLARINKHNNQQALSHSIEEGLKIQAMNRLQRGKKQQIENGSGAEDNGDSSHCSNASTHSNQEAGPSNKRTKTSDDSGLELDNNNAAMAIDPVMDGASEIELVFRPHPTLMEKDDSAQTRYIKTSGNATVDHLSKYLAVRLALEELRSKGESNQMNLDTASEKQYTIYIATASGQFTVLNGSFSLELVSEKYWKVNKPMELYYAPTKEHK
Sequence (P35226 1-326 partner): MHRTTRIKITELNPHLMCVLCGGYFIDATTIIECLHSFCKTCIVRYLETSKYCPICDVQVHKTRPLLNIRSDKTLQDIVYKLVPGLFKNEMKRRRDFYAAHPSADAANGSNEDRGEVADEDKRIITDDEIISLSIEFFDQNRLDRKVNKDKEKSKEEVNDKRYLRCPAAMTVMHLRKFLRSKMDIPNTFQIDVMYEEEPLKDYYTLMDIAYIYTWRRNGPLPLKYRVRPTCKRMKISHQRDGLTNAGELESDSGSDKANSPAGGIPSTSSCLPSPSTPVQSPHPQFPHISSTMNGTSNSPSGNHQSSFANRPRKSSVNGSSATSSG
run_description: KD classes of Table A (direct binding to Ring1B-Bmi1)
study_conditions: class given in Table A
pKd: −log10 of the molar value.

substance_smiles: Cn1ccc2c(-c3ccc(C(=O)O)[nH]3)cccc21
tgt: RING1B-BMI1 (Homo sapiens)
pKd: < 4.00
--
substance_smiles: CCc1c(-c2cccc3[nH]ccc23)[nH]c(C(=O)O)c1-c1ccc(OC)cc1
tgt: RING1B-BMI1 (Homo sapiens)
pKd: 4.30 to 4.70
--
substance_smiles: CC(C)c1c(-c2cc(F)cc3[nH]ccc23)[nH]c(C(=O)O)c1-c1cc(OC2COC2)cc2[nH]ccc12
tgt: RING1B-BMI1 (Homo sapiens)
pKd: > 4.70
--
substance_smiles: CC(C)c1c(-c2cc(F)cc3[nH]ccc23)[nH]c(C(=O)O)c1-c1cccc2[nH]c(-c3ccno3)cc12
tgt: RING1B-BMI1 (Homo sapiens)
pKd: > 4.70
--
substance_smiles: CC(C)c1c(-c2cc(F)cc3[nH]ccc23)[nH]c(C(=O)O)c1-c1cccc2[nH]c(C(=O)O)cc12
tgt: RING1B-BMI1 (Homo sapiens)
pKd: > 4.70
--
substance_smiles: CCNc1ccc2[nH]ccc2c1-c1c(C(=O)O)[nH]c(-c2cc(F)cc3[nH]ccc23)c1C(C)C
tgt: RING1B-BMI1 (Homo sapiens)
pKd: > 4.70
--
substance_smiles: CC(C)c1c(-c2cc(F)cc3[nH]ccc23)[nH]c(C(=O)O)c1-c1ccc(Oc2ccncc2)cc1
tgt: RING1B-BMI1 (Homo sapiens)
pKd: > 4.70
--
substance_smiles: CC(C)c1c(-c2cc(F)cc3[nH]ccc23)[nH]c(C(=O)O)c1-c1cccc2[nH]c3c(c12)CCC3
tgt: RING1B-BMI1 (Homo sapiens)
pKd: > 4.70
--
substance_smiles: CCc1c(-c2cccc3[nH]ccc23)[nH]c(C(=O)O)c1-c1cccc(Oc2ccccc2)c1
tgt: RING1B-BMI1 (Homo sapiens)
pKd: 4.00 to 4.30
--
substance_smiles: CC(C)c1c(-c2cc(F)cc3[nH]ccc23)[nH]c(C(=O)O)c1-c1cc(OC2CCCC2)cc2[nH]ccc12
tgt: RING1B-BMI1 (Homo sapiens)
pKd: > 4.70
--
substance_smiles: CC(C)CCOc1cccc(-c2ccc(C(=O)O)[nH]2)c1
tgt: RING1B-BMI1 (Homo sapiens)
pKd: < 4.00
--
substance_smiles: CC(C)c1c(-c2cccc3[nH]c(CO)cc23)[nH]c(C(=O)O)c1-c1c(Cl)ccc2[nH]ccc12
tgt: RING1B-BMI1 (Homo sapiens)
pKd: > 4.70
--
substance_smiles: CCc1c(-c2ccccc2O)[nH]c(C(=O)O)c1-c1ccccc1Cl
tgt: RING1B-BMI1 (Homo sapiens)
pKd: < 4.00
--
substance_smiles: COc1cc(-c2c(C(=O)O)[nH]c(-c3cc(F)cc4[nH]ccc34)c2C2CCCC2)c2cc[nH]c2c1
tgt: RING1B-BMI1 (Homo sapiens)
pKd: > 4.70
--
substance_smiles: CCCc1c(-c2cccc3[nH]ccc23)[nH]c(C(=O)O)c1-c1ccccc1Cl
tgt: RING1B-BMI1 (Homo sapiens)
pKd: 4.00 to 4.30
--
substance_smiles: CC(C)c1c(-c2cc(F)cc3[nH]ccc23)[nH]c(C(=O)O)c1-c1cc(OC(F)(F)F)cc2[nH]ccc12
tgt: RING1B-BMI1 (Homo sapiens)
pKd: > 4.70
--
substance_smiles: CC(C)CCc1c[nH]c2cccc(-c3c(C(=O)O)[nH]c(-c4cc(F)cc5[nH]ccc45)c3C(C)C)c12
tgt: RING1B-BMI1 (Homo sapiens)
pKd: > 4.70
--
substance_smiles: CC(C)c1c(-c2cccc3[nH]ccc23)c(C(=O)O)n2c1-c1cc(F)cc3ccn(c13)CC2
tgt: RING1B-BMI1 (Homo sapiens)
pKd: > 4.70
--
substance_smiles: COc1ccc(-c2c(C(=O)O)[nH]c(-c3cc(F)cc4[nH]ccc34)c2C(C)C)c(Cl)c1
tgt: RING1B-BMI1 (Homo sapiens)
pKd: > 4.70
--
substance_smiles: CC(C)c1c(-c2cc(F)cc3[nH]ccc23)[nH]c(S(C)(=O)=O)c1-c1cccc2[nH]ccc12
tgt: RING1B-BMI1 (Homo sapiens)
pKd: > 4.70
--
substance_smiles: CCc1c(-c2cccc3c2ccn3C)[nH]c(C(=O)O)c1-c1ccccc1
tgt: RING1B-BMI1 (Homo sapiens)
pKd: 4.00 to 4.30
--
substance_smiles: CC(C)c1c(-c2cc(F)cc3[nH]ccc23)[nH]c(C(=O)O)c1-c1c(F)cnc2[nH]ccc12
tgt: RING1B-BMI1 (Homo sapiens)
pKd: > 4.70
--
substance_smiles: CCc1c(-c2cccc3[nH]ccc23)[nH]c(C(=O)O)c1-c1ccc(-c2ccccc2)cc1
tgt: RING1B-BMI1 (Homo sapiens)
pKd: < 4.00
--
substance_smiles: CC(C)c1c(-c2cc(F)cc3[nH]ccc23)[nH]c(C(=O)O)c1-c1cccc2[nH]c(S(N)(=O)=O)cc12
tgt: RING1B-BMI1 (Homo sapiens)
pKd: > 4.70
--
substance_smiles: CC(C)c1c(-c2cc(F)cc3[nH]ccc23)[nH]c(C(=O)O)c1-c1ccnc2[nH]c(C3=CCN(S(=O)(=O)N(C)C)CC3)cc12
tgt: RING1B-BMI1 (Homo sapiens)
pKd: > 4.70
--
substance_smiles: CC(C)c1c(-c2cccc3[nH]ccc23)cn(CC(=O)O)c1-c1cccc2[nH]ccc12
tgt: RING1B-BMI1 (Homo sapiens)
pKd: > 4.70
--
substance_smiles: CC(C)c1c(-c2cccc3[nH]ccc23)[nH]c(C(=O)O)c1-c1ccccc1Cl
tgt: RING1B-BMI1 (Homo sapiens)
pKd: > 4.70
--
substance_smiles: Cc1ccc2[nH]ccc2c1-c1[nH]c(C(=O)O)c(-c2c(Cl)ccc3[nH]ccc23)c1C(C)C
tgt: RING1B-BMI1 (Homo sapiens)
pKd: > 4.70
--
substance_smiles: CCc1c(-c2cccc3[nH]ccc23)[nH]c(C(=O)O)c1-c1cccc(F)c1
tgt: RING1B-BMI1 (Homo sapiens)
pKd: 4.30 to 4.70
--
substance_smiles: CC(C)c1c(-c2cc(F)cc3[nH]ccc23)[nH]c(C(=O)O)c1-c1cc(F)cc2[nH]ccc12
tgt: RING1B-BMI1 (Homo sapiens)
pKd: > 4.70
